system: MS2 coat protein; experiment: apparent KD of MS2 coat protein; higher = weaker reporter binding; settings: Eterna round: R107; input ligand: none
This section presents sequences with their documented apparent KD of MS2 coat protein values.
The reply should be a number in nM, with the unit left off.

Some sequences with known apparent KD of MS2 coat protein results, for comparison:
• AUACAUGAGGAUCACCCAUGUAAAGUUGAAGGAGCGACCAGAGGGUCAGGUAGGUCGCAACACAUGAGGAUCACCCAUGUAUCGA [DOUBLE!!! :-D #6] = 83.6
• UCGGACAUGAGGAUCACCCAUGUAAAUCCUCGAGGACCGGUACGGCCGCCACUCGAACGAGUGGCGCGCGAGCGCGCGCUCGCGC [aGa] = 43.8

Now look at this entry.
State, in one line, measured apparent KD of MS2 coat protein of UAAUAGGUCCAGAACGUACCAGGUGAUCAACGAGGACCGGUACGGCCGCCACUCGAAACAUGAGGAUCACCCAUGUAACUGGACC [|T'-M'-Trp-Ms2|_Design 2_ML]
72.9

====

tested on: MS2 coat protein; assay: apparent KD of MS2 coat protein; designed switch direction (-1 OFF switch, 1 ON switch): -1; higher = weaker reporter binding; settings: Eterna round: R95; input ligand: FMN 200 uM
readout: apparent KD of MS2 coat protein (µM)
The reply should be a number in µM, with the unit left off.

Some sequences with known apparent KD of MS2 coat protein results, for comparison:
- CGUACUGAAGUGAGGAUAUUGUCUCGGAUACGAAACAAGAAGGCACAUGAGGAUCACCCAUGUAGACAGUACGA [Malc #30 mod 2] (puzzle: Brourd's mod of Exclusion 4): 0.0151
- GAUUAUGCAGGCUUUAGGGACAUGAGGAUCACCCAUGUUCGUCUUAUUGAUCUAGGUACGCUGACGUACCUAGAUCU [JL-sv1-2.34 Brourd mod] (puzzle: Sensor v3, turn-off variant 1): 0.0193
- ACGCCGCAAGGAUAUCGUAAAGCAGACAUGAGGAUCACCCAUGUGAUAUCAUAAAGGCCACGAGAAGGUGCACAAG [Quoredin] (puzzle: Exclusion 5): 0.0358
- AGAGCACAUGAGGAUCACCCAUGUCAGGAUAUGCAAGAAAGAAAGAAAGAAAGAAAGAGCAGAAGGGACAAAUA [?solved?] (puzzle: Exclusion 1): 0.0349
- UGGGUUCUCCAUAGAAGUAACAUGAGGAUCACCCAUGUAGGGCAAGUUUUUUGUUCGUCAUAGGCUGUGGAUUUGGA [JR_SV3TOV1_Sub020] (puzzle: Sensor v3, turn-off variant 1): 0.0908
- UAUUAACAAGCAAGAUCCCACAUGAGGAUCACCCAUGUGCUCGUCUUAUAAGGUACUGUGACGAAAGUCACGGUACC [Sensor 3, v1 - 80] (puzzle: Sensor v3, turn-off variant 1): 0.0265
- UUUAAUUUUUUUUUUUUACAAGCUUUUUGCUCGUCUUAUACAUGAGGAUCACCCAUGUAAAUGGAGGAUAAAUUAUC [JMF 29] (puzzle: Sensor v3, turn-off variant 2): 0.0224
- UAUUACAAGCGAGAUCCUAACAUGAGGAUCACCCAUGUGCUCGUCUCAUAUAGGACUAUCACGAAAGUGAUAGUCCA [Level Boss var2-01] (puzzle: Sensor v3, turn-off variant 1): 0.0215

State, in one line, measured apparent KD of MS2 coat protein of CAUAAUUUUCGGAAUAUGUACAUGAGGAUCACCCAUGUGACGAGUUACAUGAUUAACAAGCUUUUUGCUCGUCUUAU [Sensor v3 - Turn-off variant 1 - 12] (puzzle: Sensor v3, turn-off variant 1)
0.118

State, in one line, measured apparent KD of MS2 coat protein of CUAGAUCUUCGGAUCUAGUACAUGAGGAUCACCCAUGUGACGAGUUUAUGGGUGAACAAGCUUUUUGCUCGUCUUAU [Sensor v3 - Turn-off variant 1 - 7] (puzzle: Sensor v3, turn-off variant 1)
0.0714

State, in one line, measured apparent KD of MS2 coat protein of AGAAGUAGAAACCGAUCCUACAUGAGGAUCACCCAUGUAGCAAGACGUGCACGCGAAGCUCGUCAGACUACCAGAAG [salish99_TOv1_r3_001] (puzzle: Sensor v3, turn-off variant 1)
0.379

====

system: MS2 coat protein; assay: apparent KD of MS2 coat protein; higher = weaker reporter binding; details: Eterna round: R107; input ligand: tryptophan 2.4 mM
readout: apparent KD of MS2 coat protein (nM)
The reply should be a number in nM, with the unit left off.

Some sequences with known apparent KD of MS2 coat protein results, for comparison:
- CCUAUCCAGUCGGCCGCCACUGAAAACAGUGGGUGAACAUGAGGAUCACCCAUGUCGGAAUACCGCAGGACCGGGACUGUAUAGG [Ex Tryptophan B 23]: 574
- GGACUAACCUGAAGGAGCGACGCGCAGAAACUGCAAAUUCCUCCACACGAGGAUCACCCGUGUCAGGUAGGUCGCAGGUUAGUCG [ArgBX 28]: 16.9

Now look at this entry.
State, in one line, measured apparent KD of MS2 coat protein of UAUGCACAUGAGGAUCACCCAUGUAUGGAAGGAGCGGUGAAUAAACCAGGUAGGUCGCCAUGGUGAGGGUCAUCUAUGUAAUCGU [Exclusion - Arginine A (Freestyle 5)]
59.3

====

tested on: MS2 coat protein; assay: apparent KD of MS2 coat protein; higher = weaker reporter binding; settings: Eterna round: R107; input ligand: tryptophan 2.4 mM
apparent KD of MS2 coat protein vs 0.02 µM: at or above is T, below is F.

Say whether AGUAGACACGCGGCCGCCACUUGAGGAUCACCCAAGUGGUGUGUACUUGAAAACAAGUGCACAUCAAGGACCGGGCGUGUCUACA [Omei Tryp B SS D v3] shows apparent KD of MS2 coat protein of 0.02 µM or more.
F

====

test system: MS2 coat protein; experiment: apparent KD of MS2 coat protein; designed switch direction (-1 OFF switch, 1 ON switch): -1; higher = weaker reporter binding; details: input ligand: none
apparent KD of MS2 coat protein vs 20 nM: at or above is YES, below is NO.

Before answering, review these 8 worked examples.
* AGGUCCUUCUGGAGACAUGAGGAUCACCCAUGUCGAGUCAGCGAGGAUAUCGGUAAGACAUGUGAUGAGAAGGCGCAGACCGAU [Ex NG3 #43] (Eterna round: R96, puzzle: Exclusion NG 3) | NO
* GUUUCACAUGAGGAUCACCCAUGUGAGGAUAUCAAUUUGUUAACCGUAGUUAAUAGAUUGAGAAGGCGCGUGAU [JRxlusion 2- Jieux - Exclusion 1] (Eterna round: R97, puzzle: Exclusion 1) | YES
* CGUGUAGGAGUAGGAUAUGCGUCUAGACUACGAGCAGAAGGACUCCAGGACUUGAGGAUCACCCAAGUGCGUCCCGAGCCGUAG [Mutated MS2 EX1.23] (Eterna round: R96, puzzle: Exclusion NG 1) | NO
* CACUGCAGGUUAGGAUAUGGACAACAACAUGAGGAUCACCCAUGUAUGUAUGAACAUGUUGAUCACCAGAAGGAACACAUCAGU [Exclusion NG 2 S2] (Eterna round: R96, puzzle: Exclusion NG 2) | NO
* UCACGGGACUAAGGAUAUAUGAGAGCCAUUAACAUAGAAGGUAGAAUGUUAGAUCAUAAACUAAACAUGAGGAUCACCCAUGUU [JR_ExcNG1_Sub093] (Eterna round: R96, puzzle: Exclusion NG 1) | YES
* UUGCAGUCGUCAGGAUAUAGUAUUACGGCCUUUCAUUUCUUCAUACAUGAGGAUCACCCAUGUCGCUAGAAGGGAUUAUCGCUU [salish99_ExNG2_r04_107] (Eterna round: R96, puzzle: Exclusion NG 2) | YES
* CGGCUGUGAGGAUAUGCCAGGCCGGGCACUCCGCCGCCAGCGCAGAAGGCACAUGAGGAUCACCCAUGUCAAAG [Eternabot (L2) Solution 82] (Eterna round: R97, puzzle: Exclusion 4) | YES
* AUAAUGUCAGGAUAUCGAACUUACUACUUCGGUAGUAAGUUCGAGAAGGGACAUGAGGAUCACCCAUGUGAUCA [E4/1-A4] (Eterna round: R97, puzzle: Exclusion 4) | YES

Now let's try a different one.
Say whether AUUGUUUAUGUAGGAUAUGCCUGGCGUGCCUUCGCAGAAGGACAUGAGGAUCACCCAUGUAUUGCGGUCUGCGUUCAGAUCGCU [salish99_ExNG1_r4_025] (Eterna round: R96, puzzle: Exclusion NG 1) shows apparent KD of MS2 coat protein of 20 nM or more.
YES

====

tested on: MS2 coat protein; assay: apparent KD of MS2 coat protein, switch ON state; designed switch direction (-1 OFF switch, 1 ON switch): 1; higher = weaker reporter binding; details: FMN input: 0 or 200 uM; Eterna round: R93 (includes R88 designs)
apparent KD of MS2 coat protein vs 20 nM: at or above is yes, below is no.

Before answering, review these 4 worked examples.
- UUACAGUGCGGGUAGGAUAUGUAGGGUGGUACAUGAGGAUCACCCAUGUAUCCACCCUUCGACCGGCAGAAGGGCCUGUCACUAC [Atarzale]: no
- AAAACACAUGAGGAUCACCCAUGUAAAAACAAGAGAGGAUAUGCUUGGAAAACAUGCUAUGCAGAAGGCUCAAGUG [SS1 - 10]: no
- AAUAAAAAUAGUUAGGAUAUGAGAACUAGGACAUGAGGAUCACCCAUGUAACUAGAACAAGUAAAUCAGAAGGGACAGGGUGAAA [JR_SS002_Sub203]: yes
- AAUAUACAUGAGGAUCACCCAUGUUUUAAUAACUCAGGAUAUACAGGUGAAAACAGCAUAGUAGAAGGGAGAAAAA [SameState1 Malc#3]: no

Say whether AAGAAACAUGAGGAUCACCCAUGUAGAAAUAUGGGAGGAUAUACAAGGACGGAAGUCAAGGUAGAAGGCCUAAGAA [Mat - Same State 1 - Meechl mod - D133] shows apparent KD of MS2 coat protein of 20 nM or more.
yes

Say whether GAAAAACAUGAGGAUCACCCAUGUAGAAAUAUGGGAGGAUAUACAAAGACGAAAGUCAAAGUAGAAGGCUCAAAAG [Starry Same State 1.2 (mat747 round 1 mod)] shows apparent KD of MS2 coat protein of 20 nM or more.
yes

Say whether AUAUAUAUAAGGUAGGAUAUCCAAAAGUAAACAUGAGGAUCACCCAUGUAAAGAAAGAAACAAUGGGAGAAGGACCAUAUAUAUA [77%, More Tesla, 3] shows apparent KD of MS2 coat protein of 20 nM or more.
no

Say whether GAGGACAUAGUAUAGGAUAUAUGAAUAGUUACAUGAGGAUCACCCAUGUGCAUUUAUAUGCGAACAUAGAAGGGUGGUAGUUAUC [SameState2 Malc#31] shows apparent KD of MS2 coat protein of 20 nM or more.
yes

Say whether UGCAGGAAGAGAGAGGAUAUCCAAAGGAAAACAUGAGGAUCACCCAUGUAAAAGGUAGGAAAUUGGGAGAAGGCUCAAGAGAGAG [salish99-ss2-098] shows apparent KD of MS2 coat protein of 20 nM or more.
yes

Say whether CGGAGACAUGAGGAUCACCCAUGUGAGAAGAGGCGAGGAUAUCGAAAGAAAGAAGAGAAACGAGAAGGCGCGAGGU [salish99-SS1-071] shows apparent KD of MS2 coat protein of 20 nM or more.
yes

Say whether GAUAGACAUGAGGAUCACCCAUGUAGAAUUAUGGGAGGAUAUACAAAGACGAGAGUCAGAGUAGAAGGCCUAGGAA [salish99-ss1-156] shows apparent KD of MS2 coat protein of 20 nM or more.
yes

Say whether AAUAUACAUGAGGAUCACCCAUGUUAGGUGGGUCAAGGAUAUCAAUAUAAAUAAAAAACUUGAGAAGGUGAAUAAA [JR_SS001_Sub019] shows apparent KD of MS2 coat protein of 20 nM or more.
yes
